Each entry below carries its recorded T/C.
# System: L1210 leukemia ip in BDF1 mice, survival T/C
# Experimental protocol: NCI In Vivo Anticancer Drug Screen. Data for tumor model L1210 Leukemia (intraperitoneal) in B6D2F1 (BDF1) mice
# Assay setup: endpoint: mean survival time; dose: 25.0 mg/kg/injection; schedule: Q01DX001 (ip); vehicle: Klucel (hydroxypropylcellulose) (HPC); higher = longer survival
# Protocol: The antitumor activity of compounds was measured in mice bearing transplantable tumors. Survival or tumor size were measured and the results are expressed as the measurement made in the treated group (T) divided by the measurement made in the vehicle treated control group (C). The tumor model used in this assay is L1210 Leukemia (intraperitoneal) in B6D2F1 (BDF1) mice
Toxic doses and inconclusive results are not listed.

{"Compound": "O=C(c1ccc(Cl)cc1)C(C(c1ccc([N+](=O)[O-])cc1)N1CCCCC1)N1CCCCC1 (centres undefined)", "T/C": "104 % of control"}
{"Compound": "Nc1nc(/C=C/C=C/c2ccccc2)c(CCCCc2ccccc2)c(=O)[nH]1", "T/C": "94 % of control"}
{"Compound": "O=C1C=C(O/C=C/C(C(F)(F)F)C(F)(F)F)C(=O)c2ccccc21", "T/C": "103 % of control"}
{"Compound": "O=C(O)CC(c1ccccc1)n1ccc(=O)[nH]c1=O (centres undefined)", "T/C": "103 % of control"}

====

# Test system: L1210 leukemia ip in BDF1 mice, survival T/C
# Experimental protocol: NCI In Vivo Anticancer Drug Screen. Data for tumor model L1210 Leukemia (intraperitoneal) in B6D2F1 (BDF1) mice
# Assay setup: endpoint: mean survival time; dose: 100.0 mg/kg/injection; schedule: Q01DX009 (ip); vehicle: saline; higher = longer survival
Toxic doses and inconclusive results are not listed.
Each entry below carries its recorded T/C.
Endpoint label: T/C

{"Compound": "ClC(CN1CCCCC1)C(Cl)c1ccccc1 (stereo unspecified)", "Endpoint label": "T/C", "Assay value": "91 % of control"}
{"Compound": "COc1ccc(/C=C/C(=O)c2ccc(OC)c(OC)c2)cc1O", "Endpoint label": "T/C", "Assay value": "96 % of control"}
{"Compound": "COc1ncnc2c1ncn2C1CC(CO)C(O)C1O (stereo unspecified)", "Endpoint label": "T/C", "Assay value": "91 % of control"}
{"Compound": "Nc1ccc(CS(=O)(=O)O)cc1", "Endpoint label": "T/C", "Assay value": "112 % of control"}
{"Compound": "CCC(=O)c1ccc2c(c1)N(C(C)CN(C)C)c1ccccc1S2 (stereo unspecified)", "Endpoint label": "T/C", "Assay value": "90 % of control"}
{"Compound": "CC(=O)OC1CCC2(C)C(=CC(=O)C3=C2CCC2(C)C3CCC2C(C)/C=C/C(C)C(C)C)C1 (stereo unspecified)", "Endpoint label": "T/C", "Assay value": "92 % of control"}

====

# System: L1210 leukemia ip in BDF1 mice, survival T/C
# Experimental protocol: NCI In Vivo Anticancer Drug Screen. Data for tumor model L1210 Leukemia (intraperitoneal) in B6D2F1 (BDF1) mice
# Assay setup: endpoint: mean survival time; dose: 100.0 mg/kg/injection; schedule: Q04DX003 (ip); vehicle: Klucel (hydroxypropylcellulose) (HPC); higher = longer survival
Inconclusive results and toxic doses are left out.
Each entry below carries its recorded T/C.

{"Molecule": "O=C(O)CCCCC(=O)c1cc(O)ccc1O", "Test system": "L1210 leukemia ip in BDF1 mice, survival T/C", "T/C": "102 % of control"}
{"Molecule": "COC(=O)C(CSCc1ccccc1)NC(=O)OCc1ccccc1 (stereo unspecified)", "Test system": "L1210 leukemia ip in BDF1 mice, survival T/C", "T/C": "90 % of control"}
{"Molecule": "O=C(O)COc1cc(OCC(=O)O)c([N+](=O)[O-])cc1[N+](=O)[O-]", "Test system": "L1210 leukemia ip in BDF1 mice, survival T/C", "T/C": "102 % of control"}
{"Molecule": "Cc1nc(Cl)cc(Cl)n1", "Test system": "L1210 leukemia ip in BDF1 mice, survival T/C", "T/C": "90 % of control"}
{"Molecule": "O=C(O)/C=C\\C(=O)NCC1CCC(CNC(=O)/C=C\\C(=O)O)CC1 (stereo unspecified)", "Test system": "L1210 leukemia ip in BDF1 mice, survival T/C", "T/C": "98 % of control"}
{"Molecule": "Nc1c(Cl)cc(C(=O)NC2CC2)cc1Cl", "Test system": "L1210 leukemia ip in BDF1 mice, survival T/C", "T/C": "104 % of control"}

====

Each entry below carries its recorded T/C.
# System: L1210 leukemia ip in BDF1 mice, survival T/C
# Experimental protocol: NCI In Vivo Anticancer Drug Screen. Data for tumor model L1210 Leukemia (intraperitoneal) in B6D2F1 (BDF1) mice
# Assay setup: endpoint: mean survival time; dose: 25.0 mg/kg/injection; schedule: Q04DX003 (ip); vehicle: saline; higher = longer survival
Inconclusive results and toxic doses are left out.

{"Compound": "Nc1ncnc2c1ncn2CCCCCCl", "T/C": "88 % of control"}
{"Compound": "CC(N)CCc1ccccc1 (stereo unspecified)", "T/C": "112 % of control"}
{"Compound": "Cc1ccc(N2CCNCC2)cc1", "T/C": "103 % of control"}
{"Compound": "O=C1C=CC(=O)N1c1ccc(N2C(=O)C=CC2=O)cc1", "T/C": "110 % of control"}
{"Compound": "COc1cccc2c1C(=O)c1c(O)c3c(c(O)c1C2=O)C[C@@](O)(/C(C)=N\\NC(=O)CO)C[C@@H]3OC1CC(N)C(O)C(C)O1 (stereo partly specified)", "T/C": "102 % of control"}
{"Compound": "O=C(O)C1CCC2CCCCC2[N-]1.O=C(O)C1CCC2CCCCC2[N-]1.[Cu+2] (stereo unspecified)", "T/C": "94 % of control"}
{"Compound": "CN(C)C(=O)Nc1ccncc1", "T/C": "103 % of control"}
{"Compound": "COc1ccc(C(=O)NC[n+]2ccccc2)cc1", "T/C": "86 % of control"}
{"Compound": "CN1CCC(=C2c3ccccc3C=Cc3ccccc32)CC1", "T/C": "96 % of control"}
{"Compound": "NC(CO)Cc1ccccc1 (stereo unspecified)", "T/C": "105 % of control"}
{"Compound": "O=C1NC(=O)C([N+](=O)[O-])C(=O)N1", "T/C": "95 % of control"}

====

# Test system: L1210 leukemia ip in BDF1 mice, survival T/C
# Experimental protocol: NCI In Vivo Anticancer Drug Screen. Data for tumor model L1210 Leukemia (intraperitoneal) in B6D2F1 (BDF1) mice
# Assay setup: endpoint: mean survival time; dose: 200.0 mg/kg/injection; schedule: Q04DX003 (ip); vehicle: Klucel (hydroxypropylcellulose) (HPC); higher = longer survival
Toxic doses and inconclusive results are not listed.
Endpoint label: T/C

{"Smiles record": "COc1ccc(C(C)=O)cc1N", "Assay value": "93 % of control"}
{"Smiles record": "CCCCCCCCCCCCCCCCNS(=O)(=O)c1ccc(N2CCOCC2)c(N)c1", "Assay value": "98 % of control"}
{"Smiles record": "O=S(=O)(c1ccccc1)N1CCCCC1", "Assay value": "97 % of control"}
{"Smiles record": "O=C(c1ccccc1)c1nc2ccccc2nc1-c1ccccc1", "Assay value": "92 % of control"}
{"Smiles record": "FC(F)(F)c1ccc(Cl)c(NC2=NCCS2)c1", "Assay value": "98 % of control"}
{"Smiles record": "C/C(C(=O)O)=C(/Br)c1ccc([N+](=O)[O-])cc1", "Assay value": "100 % of control"}
{"Smiles record": "Cc1nc(C(N)=O)c(=O)[nH]c1C", "Assay value": "100 % of control"}
{"Smiles record": "O=[N+]([O-])c1cc([N+](=O)[O-])c(/C=C/c2ccccc2)c([N+](=O)[O-])c1/C=C/c1ccccc1", "Assay value": "101 % of control"}
{"Smiles record": "Cc1cccc(OC(=O)Nc2cccc(Cl)c2)c1C", "Assay value": "97 % of control"}
{"Smiles record": "c1ccc2ocnc2c1", "Assay value": "96 % of control"}
{"Smiles record": "CCCCCCC(=O)CC(C)C", "Assay value": "102 % of control"}
{"Smiles record": "O=C(O)COc1ccccc1-c1ccccc1Cl", "Assay value": "90 % of control"}
{"Smiles record": "CC(=O)COc1ccc(C(=O)Cl)cc1", "Assay value": "102 % of control"}

====

Each entry below carries its recorded T/C.
# Test system: L1210 leukemia ip in BDF1 mice, survival T/C
# Experimental protocol: NCI In Vivo Anticancer Drug Screen. Data for tumor model L1210 Leukemia (intraperitoneal) in B6D2F1 (BDF1) mice
# Assay setup: endpoint: mean survival time; dose: 200.0 mg/kg/injection; schedule: Q04DX003 (ip); vehicle: saline; higher = longer survival
Toxic doses and inconclusive results are not listed.

{"Compound": "NC(c1ccccc1)c1ccccc1", "T/C": "95 % of control"}
{"Compound": "CC1(C)OC(=O)CC(=O)O1", "T/C": "91 % of control"}
{"Compound": "O=[N+]([O-])c1cccc2c(Br)cccc12", "T/C": "100 % of control"}
{"Compound": "O=C(O)C1CCN1Cc1ccccc1 (stereo unspecified)", "T/C": "101 % of control"}
{"Compound": "CC(=O)Nc1ncnn1C(C)=O", "T/C": "95 % of control"}
{"Compound": "Cc1cc(-c2ccccc2)c2ccccc2c1N(CC(=O)O)S(=O)(=O)c1ccccc1", "T/C": "104 % of control"}
{"Compound": "CCC(SC(C)=O)C(=O)O (stereo unspecified)", "T/C": "96 % of control"}
{"Compound": "O=[N+]([O-])c1ccc(/C=C/c2ccc([N+](=O)[O-])cc2S(=O)(=O)O)c(S(=O)(=O)O)c1", "T/C": "96 % of control"}
{"Compound": "COc1ccc(/C=C/C(=O)c2ccc3cc(OC)c(OC)cc3c2)cc1OC", "T/C": "89 % of control"}
{"Compound": "O=C1c2cc(O)c(O)cc2O[C@H](c2ccc(O)c(O)c2)[C@H]1O", "T/C": "100 % of control"}
{"Compound": "Cn1c(=O)oc2ccccc2c1=S", "T/C": "100 % of control"}

The measurements presented in this section are drawn from PubChem BioAssay AID248.
